# System name: Vascular endothelial growth factor receptor 2 (Homo sapiens)
# Experiment: Inhibition of KDR (unknown origin) at 1 uM by kinase-glo luminescent assay relative to control
Active and inactive are the calls of the source. The calls are words filed in the database; no cut-off is given here.
Observable: inhibition

CS(=O)(=O)N1CCN(Cc2cc3nc(-c4cccc5[nH]ncc45)nc(N4CCOCC4)c3s2)CC1 [PICTILISIB]
inactive
CS(=O)(=O)N1CCN(Cc2ccc(-c3nc(-c4ccc(NC(=O)Nc5ccn[nH]5)cc4)nc(N4CCOCC4)n3)s2)CC1
1.77%
CS(=O)(=O)N1CCN(Cc2ccc(-c3nc(-c4ccc(NC(=O)Nc5ccncc5)cc4)nc(N4CCOCC4)n3)s2)CC1
1.74%
Cn1ccc(NC(=O)Nc2ccc(-c3nc(-c4ccc(CN5CCN(S(C)(=O)=O)CC5)s4)nc(N4CCOCC4)n3)cc2)n1
inactive

----------
# Experiment: Selectivity ratio of IC50 for antiproliferative activity against human A549 cells to IC50 for antiproliferative activity against human NCI-H1975 cells overexpressing EGFR L858R/T790M mutant
# Assay type: functional
Observable: Ratio IC50
Please reply with the value in numeric form only.

Worked cases, Ratio IC50 given:
CS(=O)(=O)N1CCN(Cc2ccc(-c3nc(-c4ccc(NC(=O)Nc5cncnc5)cc4)nc(N4CCOCC4)n3)s2)CC1
1.59
CS(=O)(=O)N1CCN(Cc2ccc(-c3nc(-c4ccc(NC(=O)Nc5ccn[nH]5)cc4)nc(N4CCOCC4)n3)s2)CC1
0.69

// Ratio IC50 lookup, molecule = CS(=O)(=O)N1CCN(Cc2ccc(-c3nc(-c4ccc(NC(=O)NC5CN6CCC5CC6)cc4)nc(N4CCOCC4)n3)s2)CC1 (centres undefined) , result: 0.059

// Ratio IC50 lookup, molecule = CS(=O)(=O)N1CCN(Cc2ccc(-c3nc(-c4ccc(NC(=O)Nc5cnccn5)cc4)nc(N4CCOCC4)n3)s2)CC1 , result: 0.86

----------
# System name: Phosphatidylinositol 4,5-bisphosphate 3-kinase catalytic subunit alpha isoform (Homo sapiens)
# Sequence (P42336 whole entry, canonical isoform): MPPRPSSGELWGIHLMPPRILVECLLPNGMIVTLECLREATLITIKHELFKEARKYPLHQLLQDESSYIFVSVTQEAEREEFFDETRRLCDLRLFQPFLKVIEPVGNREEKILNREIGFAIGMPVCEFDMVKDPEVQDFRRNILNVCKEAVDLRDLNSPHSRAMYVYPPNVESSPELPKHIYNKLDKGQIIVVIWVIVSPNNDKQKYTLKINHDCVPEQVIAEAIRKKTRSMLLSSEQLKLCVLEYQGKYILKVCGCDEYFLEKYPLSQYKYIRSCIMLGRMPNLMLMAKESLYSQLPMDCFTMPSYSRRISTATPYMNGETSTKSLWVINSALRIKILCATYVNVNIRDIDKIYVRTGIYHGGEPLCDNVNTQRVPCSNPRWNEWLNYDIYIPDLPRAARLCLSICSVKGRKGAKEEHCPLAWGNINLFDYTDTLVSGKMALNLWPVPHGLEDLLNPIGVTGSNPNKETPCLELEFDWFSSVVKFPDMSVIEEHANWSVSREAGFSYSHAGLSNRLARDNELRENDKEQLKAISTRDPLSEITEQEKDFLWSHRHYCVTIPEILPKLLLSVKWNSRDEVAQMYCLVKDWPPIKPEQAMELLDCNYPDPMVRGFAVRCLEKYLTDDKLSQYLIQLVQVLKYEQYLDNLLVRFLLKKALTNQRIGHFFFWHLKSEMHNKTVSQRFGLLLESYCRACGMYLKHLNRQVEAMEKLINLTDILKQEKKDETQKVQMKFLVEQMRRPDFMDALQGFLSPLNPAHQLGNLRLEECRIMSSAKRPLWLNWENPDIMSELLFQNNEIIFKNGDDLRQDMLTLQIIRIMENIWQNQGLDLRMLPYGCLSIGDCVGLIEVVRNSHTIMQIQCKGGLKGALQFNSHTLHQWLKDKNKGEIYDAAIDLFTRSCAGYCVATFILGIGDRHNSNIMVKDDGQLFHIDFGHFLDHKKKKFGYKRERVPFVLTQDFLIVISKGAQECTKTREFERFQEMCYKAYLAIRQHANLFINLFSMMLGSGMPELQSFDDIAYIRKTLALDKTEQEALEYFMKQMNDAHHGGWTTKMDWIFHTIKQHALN
# Experiment: Inhibition of PI3Kalpha (unknown origin) by kinase-glo luminescent assay
Observable: IC50 (nM)

Worked cases, IC50 given:
CS(=O)(=O)N1CCN(Cc2ccc(-c3nc(-c4ccc(NC(=O)Nn5cnnc5)cc4)nc(N4CCOCC4)n3)s2)CC1
1740
CS(=O)(=O)N1CCN(Cc2ccc(-c3nc(-c4ccc(NC(=O)Nc5ncc[nH]5)cc4)nc(N4CCOCC4)n3)s2)CC1
1790
CS(=O)(=O)N1CCN(Cc2ccc(-c3nc(-c4ccc(NC(=O)Nc5cnccn5)cc4)nc(N4CCOCC4)n3)s2)CC1
2360
Cn1ccc(NC(=O)Nc2ccc(-c3nc(-c4ccc(CN5CCN(S(C)(=O)=O)CC5)s4)nc(N4CCOCC4)n3)cc2)n1
299
CS(=O)(=O)N1CCN(Cc2ccc(-c3nc(-c4ccc(NC(=O)NC5CN6CCC5CC6)cc4)nc(N4CCOCC4)n3)s2)CC1 (stereo not drawn)
8970
Cn1nccc1NC(=O)Nc1ccc(-c2nc(-c3ccc(CN4CCN(S(C)(=O)=O)CC4)s3)nc(N3CCOCC3)n2)cc1
1330

A = CS(=O)(=O)N1CCN(Cc2ccc(-c3nc(-c4ccc(NC(=O)Nc5ccncc5)cc4)nc(N4CCOCC4)n3)s2)CC1
B = CS(=O)(=O)N1CCN(Cc2ccc(-c3nc(-c4ccc(NC(=O)Nc5ccccn5)cc4)nc(N4CCOCC4)n3)s2)CC1
Challenge: Which of these two has the smaller recorded IC50: A or B ? Let me know the label of the one you choose.
Response given: A
(A: 177 nM, B: 3000 nM)

Source: ChEMBL document CHEMBL5236659
